Test system: human PCSK9 locus
experimentSummary: Secreted PCSK9 by ELISA (normalized to total cell count) in Huh7 cells transfected with mRNA and gRNA
Type: cell-based
measurementSetup: averaged from the two doses; paired with LTRP5-ADD-ZIM3 mRNA; Huh7 cells; 6 days post-transfection
Note to self: values exactly at 60% are class 1. So Average percent reduction in PCSK9 secretion at or above 60% is class 1, below is class 0.

substance	classLabel
GAAUUCUAUGGUAGGCACAA (listed as RNA, chemistry not given here) [spacer 6.134, Promoter]	class 0
TG-06-351 (guide UUAUGACACAGAACUCAUGC; listed as RNA, chemistry not given here)	class 0
UUUUACACACCAUGUUCAAG (listed as RNA, chemistry not given here) [spacer 6.129, Promoter]	class 0
Non-targeting (guide CGAGACGTAATTACGTCTCG; chemistry not given here)	class 0
UCCUCCUGCCUGGUACACAA (listed as RNA, chemistry not given here) [spacer 6.127, Promoter]	class 0
AUGGUAGGCACAAGCUCAGC (listed as RNA, chemistry not given here) [spacer 6.133, Promoter]	class 0
UUCCACUGGCCUUAACCUGG (listed as RNA, chemistry not given here) [spacer 6.142, Promoter]	class 1
GCCAGGCCGUCCUCCUCGGA (listed as RNA, chemistry not given here) [spacer 6.4, Exon 1]	class 0
UCGGCCUCCGGGUCUCCCAA (listed as RNA, chemistry not given here) [spacer 6.170, Intron 1]	class 0
GGAAGGGCUGUCGAUACUGG (listed as RNA, chemistry not given here) [spacer 6.121, Promoter]	class 0
UGGGUCCACCUUGUCUCCUG (listed as RNA, chemistry not given here) [spacer 6.145, Promoter]	class 1
GGAGCAGGGCGCGUGAAGGG (listed as RNA, chemistry not given here) [spacer 6.158, Exon 1]	class 1
GAGCAGGCCAUUUCACUCGG (listed as RNA, chemistry not given here) [spacer 6.119, Promoter]	class 0
GAGGAGGACGGCCUGGCCGA (listed as RNA, chemistry not given here) [spacer 6.1, Exon 1]	class 1
GCUGAAACAGAUGGAAUACU (listed as RNA, chemistry not given here) [spacer 6.172, Intron 1]	class 0
GGAAAGCUGAGCUUGUGCCU (listed as RNA, chemistry not given here) [spacer 6.135, Promoter]	class 0
GCUCCUGCACAGUCCUCCCC (listed as RNA, chemistry not given here) [spacer 6.161, Exon 1]	class 0
CGGGGUUGGGAGACCCGGAG (listed as RNA, chemistry not given here) [spacer 6.169, Intron 1]	class 0
ACUGGCCUUAACCUGGCAGC (listed as RNA, chemistry not given here) [spacer 6.141, Promoter]	class 1
AGAAAUCAACUGGACAAGCA (listed as RNA, chemistry not given here) [spacer 6.128, Promoter]	class 0
GUGGGAAGGUUCGCGGGGUU (listed as RNA, chemistry not given here) [spacer 6.168, Intron 1]	class 0
CAGUAUCGACAGCCCUUCCA (listed as RNA, chemistry not given here) [spacer 6.124, Promoter]	class 1
CGCGCCCUGCUCCUGAACUU (listed as RNA, chemistry not given here) [spacer 6.160, Exon 1]	class 0
AGAAGAUUCAAUUUGCAAAG (listed as RNA, chemistry not given here) [spacer 6.132, Promoter]	class 0
AGGGAUUUAUACUACAAAGA (listed as RNA, chemistry not given here) [spacer 6.138, Promoter]	class 1
GCGCGCCCCUUCACGCGCCC (listed as RNA, chemistry not given here) [spacer 6.159, Exon 1]	class 0
